The reported numbers originate from patent US20130029978A1.

- tgt: FAAH (Homo sapiens)
- Construct: the U-937 microsomal fraction (final concentration of 6 μg/well) prepared in (1); endogenous in cells
- Sequence (O00519 whole entry): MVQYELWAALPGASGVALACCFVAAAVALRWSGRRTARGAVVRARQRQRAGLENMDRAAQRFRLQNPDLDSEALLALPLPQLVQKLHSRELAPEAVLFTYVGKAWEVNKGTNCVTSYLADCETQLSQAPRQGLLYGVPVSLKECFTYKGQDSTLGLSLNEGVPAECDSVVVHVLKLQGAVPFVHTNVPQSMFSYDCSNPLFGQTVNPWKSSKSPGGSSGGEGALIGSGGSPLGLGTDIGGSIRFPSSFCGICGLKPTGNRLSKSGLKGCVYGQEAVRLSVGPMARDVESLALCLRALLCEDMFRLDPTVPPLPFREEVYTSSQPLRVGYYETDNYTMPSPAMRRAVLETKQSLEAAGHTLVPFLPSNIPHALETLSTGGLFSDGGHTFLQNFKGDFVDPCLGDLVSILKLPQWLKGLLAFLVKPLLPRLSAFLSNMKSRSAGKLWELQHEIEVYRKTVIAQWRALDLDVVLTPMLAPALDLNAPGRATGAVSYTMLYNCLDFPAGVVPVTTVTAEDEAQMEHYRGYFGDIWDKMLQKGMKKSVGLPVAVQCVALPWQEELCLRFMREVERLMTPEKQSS
- assay info: In vitro FAAH inhibitory activity using U-937 microsomal fraction (AAMCA substrate, fluorescence)
- protocol conditions: 6 μg/well, 120 min incubation at room temperature, read-out: FAAH Inhibitory Activity IC50 U-937 microsome
reported property: IC50

compound	IC50
O=C(Nc1cnccn1)N1CCN(C2CCOc3cc(C(F)(F)F)ccc32)CC1 (stereo not drawn) [Example 52]	< 100 nM
O=C(Nc1cccnn1)N1CCN(C2CCOc3cc(C(F)(F)F)c(F)cc32)CC1 (stereo not drawn) [Example 12]	100 to 1000 nM

Qu. Fill in the recorded IC50 for this compound, with FAAH (Homo sapiens) as test system: O=C(Nc1nccs1)N1CCN(C2CCOc3cc(C(F)(F)F)ccc32)CC1 (stereo not drawn) [Example 22]
Ans. > 1000 nM
